B1: RSPH3 (parent)
chain: LELQRQREARKRALARKQAQEQLR

# Variants of: B1
# measurement.protocol: protein stability index of a GFP-peptide fusion (GPS, HEK-293T) (PSI 1-6); higher = more stable;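 also: lentivirally expressed fusions sorted by FACS into six bins by GFP to DsRed ratio, PSI derived from sequencing read proportions per bin multiplied by bin number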
# protocol.conditions: c terminus: a fixed tail appended
Listing: protein stability index of selected variants

{"record.sequence": "LELQRQREARKRALARKQAWEQLR [Q20W]", "protein stability index": 2.04}
{"record.sequence": "LELQRQREARKRQLARKQAQEQLR [A13Q]", "protein stability index": 4.45}
{"record.sequence": "LELQRQREARKNALARKQAQEQLR [R12N]", "protein stability index": 4.45}
{"record.sequence": "LELQRQREARKRALARKQAQEQWR [L23W]", "protein stability index": 3.69}
{"record.sequence": "LELQRQREARKRALARKHAQEQLR [Q18H]", "protein stability index": 3.11}
{"record.sequence": "LELQRQREARKRALARKQAQEDLR [Q22D]", "protein stability index": 4.29}
{"record.sequence": "LNLQRQREARKRALARKQAQEQLR [E2N]", "protein stability index": 3.69}
{"record.sequence": "LELPRQREARKRALARKQAQEQLR [Q4P]", "protein stability index": 3.51}
{"record.sequence": "LPLQRQREARKRALARKQAQEQLR [E2P]", "protein stability index": 3.58}
{"record.sequence": "LELQRQREARKRALARKQAQKQLR [E21K]", "protein stability index": 4.28}
{"record.sequence": "LELQTQREARKRALARKQAQEQLR [R5T]", "protein stability index": 4.17}
{"record.sequence": "LELQRQREARKRALPRKQAQEQLR [A15P]", "protein stability index": 4.2}
{"record.sequence": "LILQRQREARKRALARKQAQEQLR [E2I]", "protein stability index": 2.34}
{"record.sequence": "LELQRQREARKRALARKQAQEQRR [L23R]", "protein stability index": 4.16}
{"record.sequence": "LELQRQREARKRAGARKQAQEQLR [L14G]", "protein stability index": 4.75}
{"record.sequence": "LELQRQREARKRALARKFAQEQLR [Q18F]", "protein stability index": 3.53}
{"record.sequence": "LELQRQREARKKALARKQAQEQLR [R12K]", "protein stability index": 3.97}
{"record.sequence": "LELQRQREARKRALAQKQAQEQLR [R16Q]", "protein stability index": 3.96}
{"record.sequence": "LELQRQREARKRALARCQAQEQLR [K17C]", "protein stability index": 3.77}
{"record.sequence": "LCLQRQREARKRALARKQAQEQLR [E2C]", "protein stability index": 3.13}
{"record.sequence": "LELQRQREKRKRALARKQAQEQLR [A9K]", "protein stability index": 3.68}
{"record.sequence": "LELQRQREARKRALARKQAQEQPR [L23P]", "protein stability index": 3.78}
{"record.sequence": "LELQRQREAIKRALARKQAQEQLR [R10I]", "protein stability index": 3.22}

Each recorded value in this set is attributed to the supplement of paper PMC10567573.
